Test system: Escherichia coli
Experiment: Antibacterial activity against Escherichia coli at 15 ug after 24 hrs by disc diffusion assay
Assay type: functional
Conditions: read-out: IZ
measured.quantity: zone of inhibition at 15 µg/disc (mm)
Give the value in mm but do not write mm after it.

# example entries with known answers
{"molecule": "CCC1[C@H]2c3c(n(C)c4ccccc4c3=O)OC(C)(C)[C@@H]2CN1OS(=O)(=O)c1ccc(C)cc1 (mixture of isomers)", "tgt": "Escherichia coli", "endpoint.result": 16}
{"molecule": "O=C(O)c1cn(C2CC2)c2cc(N3CCNCC3)c(F)cc2c1=O", "tgt": "Escherichia coli", "endpoint.result": 18}
{"molecule": "CCC1[C@@H]2Nc3ccc(Br)cc3C(c3ccccc3)[C@H]2CN1OS(=O)(=O)c1ccc(C)cc1 (some centres undefined)", "tgt": "Escherichia coli", "endpoint.result": 16}
{"molecule": "CCC1[C@@H]2Nc3ccccc3C(c3ccccc3)[C@H]2CN1OS(=O)(=O)c1ccc(C)cc1 (some centres undefined)", "tgt": "Escherichia coli", "endpoint.result": 18}
{"molecule": "CCC1[C@@H]2Nc3ccc(Cl)cc3C(C)(C)[C@H]2CN1OS(=O)(=O)c1ccc(C)cc1 (some centres undefined)", "tgt": "Escherichia coli", "endpoint.result": 18}
{"molecule": "CCC1[C@@H]2Nc3ccc(Cl)cc3C(c3ccccc3)[C@H]2CN1OS(=O)(=O)c1ccc(C)cc1 (some centres undefined)", "tgt": "Escherichia coli", "endpoint.result": 18}
{"molecule": "CCC1[C@@H]2c3c(c4ccccc4n(C)c3=O)OC(C)(C)[C@H]2CN1OS(=O)(=O)c1ccc(C)cc1 (mixture of isomers)", "tgt": "Escherichia coli", "endpoint.result": 18}
{"molecule": "CCC1[C@H]2c3c(n(C)c4ccccc4c3=O)OC(c3ccccc3)[C@@H]2CN1OS(=O)(=O)c1ccc(C)cc1 (mixture of isomers)", "tgt": "Escherichia coli", "endpoint.result": 16}

In one line, give reported zone of inhibition at 15 µg/disc of the entry CCC1[C@@H]2c3c(c4ccccc4n(C)c3=O)OC(c3ccccc3)[C@H]2CN1OS(=O)(=O)c1ccc(C)cc1 (mixture of isomers) .
18
